# TEST_TARGET: T1, human CD3εδ-Fc heterodimer (Hu CD3ε Fc / CD3δ Fc-HIS) (human, UniProt P04234 22-100)
# T1 construct: range 22-100; Produced in HEK 293 cells with a heterologous signal peptide; heterodimer purified by Ni Sepharose and Mono Q; also called Hu CD3εδ Fc heterodimer; CD3εδ Fc-HIS heterodimer; not shown: Fc-HIS part of CD3δ Fc-HIS
# T1 sequence (chain, as listed by the source mutant, form in doubt, chain 1 of 2): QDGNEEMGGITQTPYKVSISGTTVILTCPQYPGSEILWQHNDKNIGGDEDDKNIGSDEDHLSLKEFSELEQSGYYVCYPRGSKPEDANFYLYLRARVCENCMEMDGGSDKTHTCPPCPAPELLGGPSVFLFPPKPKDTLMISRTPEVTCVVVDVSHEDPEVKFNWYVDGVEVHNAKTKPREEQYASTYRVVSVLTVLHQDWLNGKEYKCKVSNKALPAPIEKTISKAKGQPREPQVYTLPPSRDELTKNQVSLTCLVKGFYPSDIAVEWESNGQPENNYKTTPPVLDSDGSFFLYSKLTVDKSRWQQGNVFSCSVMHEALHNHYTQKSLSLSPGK
# T1 sequence (P04234 22-100, stated change not applied, form in doubt, chain 2 of 2): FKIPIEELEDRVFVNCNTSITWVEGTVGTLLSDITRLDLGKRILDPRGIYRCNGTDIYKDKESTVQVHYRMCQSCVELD
# ASSAY_PROCEDURE: BLI (Octet), yeast-produced IgG on AHC sensor, CD3εδ-Fc 100 nM in solution, pH 6.0
Decide using Kd alone. Strictly below 7 nM: T. Equal to or above 7 nM: F.

{"columns": ["BINDER", "LABEL"],
 "data": [
  ["ADI-79846 (Antibody No. 12), human IgG1 (antibody, V domains shown, Tested as yeast-produced aglycosylated human IgG1) VH: QVQLVQSGAEVKKPGASVKVSCKASGFNIKDYYMHWVRQAPGQRLEWMGWIDLENANTIYDAKFQGRVTITRDTSASTAYMGLSSLRSEDTAVYYCARDHYGRYFYDVWGQGTLVTVSS VL: DIVMTQSPDSLAVSLGERATINCKSSQSLLNARTGHNYLAWYQQKPGQPPKLLIYWASTRESGVPDRFSGSGSGTDFTLTISSLQAEDVAVYYCKQSHSHRTFGGGTKVEIK", "F"],
  ["ADI-48587 (Antibody No. 2), human IgG1 (antibody, V domains shown, Tested as human IgG1 (yeast-produced aglycosylated, or CHO-produced); also called Ab No. 2; parent pH-dependent antibody) VH: QVQLVQSGAEVKKPGASVKVSCKASGFNIKDYYMHWVRQAPGQRLEWMGWIDLENANTIYDAKFQGRVTITRDTSASTAYMELSSLRSEDTAVYYCARDHYHRYFYDVWGQGTLVTVSS VL: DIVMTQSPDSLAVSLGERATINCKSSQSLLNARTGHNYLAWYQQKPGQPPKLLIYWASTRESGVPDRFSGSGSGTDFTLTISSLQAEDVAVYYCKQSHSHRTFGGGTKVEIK", "F"],
  ["ADI-79848 (Antibody No. 9), human IgG1 (antibody, V domains shown, Tested as yeast-produced aglycosylated human IgG1) VH: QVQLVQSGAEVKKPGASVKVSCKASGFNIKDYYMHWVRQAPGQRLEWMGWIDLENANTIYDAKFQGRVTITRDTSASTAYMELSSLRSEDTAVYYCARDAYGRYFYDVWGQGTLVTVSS VL: DIVMTQSPDSLAVSLGERATINCKSSQSLLNARTGHNYLAWYQQKPGQPPKLLIYWASTRESGVPDRFSGSGSGTDFTLTISSLQAEDVAVYYCKQSYSRRTFGGGTKVEIK", "T"],
  ["ADI-79842 (Antibody No. 7), human IgG1 (antibody, V domains shown, Tested as yeast-produced aglycosylated human IgG1) VH: QVQLVQSGAEVKKPGASVKVSCKASGFNIKDYYMHWVRQAPGQRLEWMGWIDLENANTIYDAKFQGRVTITRDTSASTAYMELSSLRSEDTAVYYCARDHYGRYFYDVWGQGTLVTVSS VL: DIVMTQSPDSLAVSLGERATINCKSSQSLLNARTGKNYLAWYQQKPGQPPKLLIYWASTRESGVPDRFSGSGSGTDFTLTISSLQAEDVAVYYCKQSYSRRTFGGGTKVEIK", "T"],
  ["ADI-26906 (Antibody No. 1), human IgG1 (antibody, V domains shown, Non-pH-dependent parent; Tested as human IgG1 (yeast-produced aglycosylated, or CHO-produced); also called Ab No. 1) VH: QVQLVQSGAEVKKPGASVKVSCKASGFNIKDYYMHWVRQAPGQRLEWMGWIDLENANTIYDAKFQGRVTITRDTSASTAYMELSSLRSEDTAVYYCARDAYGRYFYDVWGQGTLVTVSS VL: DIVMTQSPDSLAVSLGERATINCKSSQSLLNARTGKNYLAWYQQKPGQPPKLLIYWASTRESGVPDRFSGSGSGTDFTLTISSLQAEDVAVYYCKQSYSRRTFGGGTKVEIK", "T"]
]}
